# maps each entry to its inhibition
Molecular target: 11-beta-hydroxysteroid dehydrogenase 1 (Mus musculus)
Experiment: Inhibition of mouse 11beta-HSD1 expressed in HEK293 cell microsomes assessed as inhibition of [3H]cortisone conversion to [3H]cortisol at 1 uM by scintillation proximity assay
Settings: Microsome

* C=C1C[C@@]23CC[C@H]4[C@@](C)(CCC[C@@]4(C)C(=O)O)[C@@H]2CC[C@@H]1C3 [KAURENOIC ACID] | 82.4%

Task: What value of inhibition has been recorded for this entry: C=C1C[C@@]23CC[C@H]4[C@@](C)(CCC[C@@]4(C)NC(=O)NC45CC6CC(CC(C6)C4)C5)[C@@H]2CC[C@H]1C3
Result: 18.2%

Task: Follow-up entry: C[C@@]12CCC[C@@](C)(C(=O)O)[C@H]1CC[C@@]13C[C@H](C[C@H](O)[C@@H]21)[C@]1(CO1)[C@H]3O
Result: 16.8%

Task: Follow-up entry: C=C1[C@H]2C[C@H](O)[C@H]3[C@]4(C)CCC[C@@](C)(NC(=O)NC)[C@H]4CC[C@]3(C2)[C@@H]1O
Result: 19.4%

Task: Follow-up entry: C=C1C(=O)[C@@]23CC[C@H]4[C@@](C)(CCC[C@@]4(C)C(=O)O)[C@@H]2[C@@H](O)C[C@H]1C3
Result: 25.3%

Task: Follow-up entry: C=C1[C@H]2CC[C@H]3[C@]4(C)CCC[C@@](C)(C(=O)O)[C@H]4CC[C@]3(C2)[C@H]1O
Result: 55.5%

Task: Follow-up entry: C=C1[C@H]2C[C@H](OC(=O)c3ccc(Br)cc3)[C@H]3[C@]4(C)CCC[C@@](C)(C(=O)O)[C@H]4CC[C@]3(C2)[C@@H]1O
Result: 32.7%

----------
Species: Homo sapiens
Experiment: selectivity ratio of IC50 for human 11beta-HSD2 to IC50 for human 11beta-HSD1
# maps each entry to its Ratio IC50

Observe how each entry below is paired with its result.
* C=C1C[C@@]23CC[C@H]4[C@@](C)(CCC[C@@]4(C)NC(=O)Nc4ccc(F)cc4)[C@@H]2CC[C@H]1C3 | > 302
* C=C1[C@H]2C[C@H](O)[C@H]3[C@]4(C)CCC[C@@](C)(NC(=O)NC5CCCCC5)[C@H]4CC[C@]3(C2)[C@@H]1O | > 605

Task: What value of Ratio IC50 has been recorded for this entry: C=C1[C@H]2C[C@H](O)[C@H]3[C@]4(C)CCC[C@@](C)(NC(=O)Nc5ccc(F)cc5)[C@H]4CC[C@]3(C2)[C@@H]1O
Result: > 402

----------
# maps each entry to its inhibition
Target: 11-beta-hydroxysteroid dehydrogenase 1 (Mus musculus)
Assay: Inhibition of mouse 11beta-HSD1 expressed in HEK293 cell microsomes assessed as inhibition of [3H]cortisone conversion to [3H]cortisol at 1 uM by scintillation proximity assay
Details: Microsome
Give the value in % but do not write % after it.

Observe how each entry below is paired with its result.
- C=C1[C@H]2C[C@H](O)[C@H]3[C@]4(C)CCC[C@@](C)(NC(=O)Nc5nccs5)[C@H]4CC[C@]3(C2)[C@@H]1O: 5.39
- C=C1C[C@@]23CC[C@@H]4[C@](C)(CO)CCC[C@@]4(C)[C@@H]2CC[C@H]1C3: 20.4
- C=C1[C@@H](O)[C@@]23CC[C@H]4[C@@](C)(CCC[C@@]4(C)C(=O)O)[C@@H]2C=C[C@H]1C3: 19.6

# evaluate next
Task: What value of inhibition has been recorded for this entry: C=C1[C@H]2C[C@H](O)[C@H]3[C@]4(C)CCC[C@@](C)(N=C=O)[C@H]4CC[C@]3(C2)[C@@H]1O
Result: 16.8
